target: RIP1 (Homo sapiens (Human), UniProt Q13546)
Sequence (Q13546 whole entry): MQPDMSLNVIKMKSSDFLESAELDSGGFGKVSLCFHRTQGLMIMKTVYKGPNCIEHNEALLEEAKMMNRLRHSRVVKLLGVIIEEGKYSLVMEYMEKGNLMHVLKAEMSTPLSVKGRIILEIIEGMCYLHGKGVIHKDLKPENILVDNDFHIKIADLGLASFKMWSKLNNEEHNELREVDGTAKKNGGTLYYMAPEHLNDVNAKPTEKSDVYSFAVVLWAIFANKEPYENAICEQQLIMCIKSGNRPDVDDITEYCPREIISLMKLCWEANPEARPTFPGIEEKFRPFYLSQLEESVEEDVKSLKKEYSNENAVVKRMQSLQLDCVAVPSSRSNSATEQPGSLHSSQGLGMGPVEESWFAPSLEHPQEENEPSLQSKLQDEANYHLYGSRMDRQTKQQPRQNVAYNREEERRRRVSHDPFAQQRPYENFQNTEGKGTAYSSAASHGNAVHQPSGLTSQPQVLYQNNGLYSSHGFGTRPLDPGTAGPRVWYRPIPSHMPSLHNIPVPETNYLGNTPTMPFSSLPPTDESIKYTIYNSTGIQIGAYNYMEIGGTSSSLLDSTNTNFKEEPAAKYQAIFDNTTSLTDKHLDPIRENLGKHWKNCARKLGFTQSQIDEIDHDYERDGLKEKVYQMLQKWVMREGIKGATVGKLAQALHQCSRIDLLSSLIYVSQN
pKd: −log10 of the molar value.
Metric: pKd

Answered cases to consult:
| Smiles representation | pKd |
| --- | --- |
| CCS(=O)(=O)Nc1ccc(-c2n[nH]c(Nc3cnccn3)c2C(N)=O)cc1OCC1CCCCC1 | < 4.52 |
| CCS(=O)(=O)Nc1ccc(-c2n[nH]c(Nc3cnccn3)c2C(N)=O)cc1OCc1cccc(OC(F)(F)F)c1 | < 4.52 |
| C[C@H](Oc1cc(-c2n[nH]c(Nc3cnccn3)c2C(N)=O)ccc1NS(=O)(=O)CC(F)(F)F)c1ccccn1 | < 4.52 |

With those in mind, consider the next molecule.
# returns recorded pKd (system: RIP1 (Homo sapiens (Human), UniProt Q13546)) for `CCS(=O)(=O)Nc1ccc(-c2n[nH]c(Nc3cnccn3)c2C(N)=O)cc1OC1(c2ccccc2)CC1`
< 4.52
